experimental-system: FabX (Helicobacter pylori, UniProt O25465)
Construct: gene HP_0773; recombinant from pQE2 vector in E. coli BL21(DE3) Rosetta, Ni-NTA, HiTrap-SP, Superdex75; FMN and [4Fe-4S] cofactors
Sequence (O25465 1-363): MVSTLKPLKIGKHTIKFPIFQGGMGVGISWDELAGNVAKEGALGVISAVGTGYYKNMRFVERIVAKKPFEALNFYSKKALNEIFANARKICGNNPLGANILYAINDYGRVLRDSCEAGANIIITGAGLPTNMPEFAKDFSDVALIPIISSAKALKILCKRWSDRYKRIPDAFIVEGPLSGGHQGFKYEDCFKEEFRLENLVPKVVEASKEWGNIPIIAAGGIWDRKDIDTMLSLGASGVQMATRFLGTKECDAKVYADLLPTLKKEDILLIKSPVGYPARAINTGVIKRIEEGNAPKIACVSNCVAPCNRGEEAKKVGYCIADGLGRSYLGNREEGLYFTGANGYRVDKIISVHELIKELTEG
experimental-details: biochemical
Set-up: FabX-FabI enzyme-coupled assay, NADH consumption read-out of FabX inhibition
recorded-conditions: read-out: Inhibition (%) 10 μM
Description: […]
quantity: inhibition at 10 µM (%)
The figure you give is taken to be in %; do not add the unit.

Quick check: inhibition at 10 µM of CCOC(=O)c1cccc(NS(=O)(=O)c2cccnc2Nc2ccc(Cl)cc2)c1 ?
35

Quick check: inhibition at 10 µM of N#Cc1cccc(NS(=O)(=O)c2ncccc2Nc2ccc(Cl)cc2Cl)c1 [11c] ?
60

Quick check: inhibition at 10 µM of O=S(=O)(Nc1cccc(I)c1)c1cccnc1Nc1ccc(Cl)cc1 ?
23

Quick check: inhibition at 10 µM of C#Cc1cccc(NS(=O)(=O)c2cccnc2Nc2ccc(Cl)cc2)c1 ?
63

Quick check: inhibition at 10 µM of O=S(=O)(NCc1ccccc1)c1cccnc1Nc1ccc(Cl)cc1 ?
25

Quick check: inhibition at 10 µM of N#Cc1ccc(NS(=O)(=O)c2cccnc2Nc2ccc(Cl)cc2)cc1 ?
12

Quick check: inhibition at 10 µM of N#Cc1cccc(NS(=O)(=O)c2cccnc2Nc2ccc(Cl)cc2)c1 ?
88

Quick check: inhibition at 10 µM of COc1ccc(NS(=O)(=O)c2cccnc2Nc2ccc(Cl)cc2)cc1 ?
23

Quick check: inhibition at 10 µM of N#Cc1cccc(NS(=O)(=O)c2cccnc2Nc2ccc(Cl)cc2Cl)c1 ?
100

Quick check: inhibition at 10 µM of N#Cc1cccc(NS(=O)(=O)c2ccccc2Nc2ccc(Cl)cc2Cl)c1 [11d] ?
94

----------
experimental-system: FabX (Helicobacter pylori)
Construct: gene HP_0773; recombinant from pQE2 vector in E. coli BL21(DE3) Rosetta, Ni-NTA, HiTrap-SP, Superdex75; FMN and [4Fe-4S] cofactors
experimental-details: FabX-FabI coupled assay, NADH absorbance […] nm
Assay type: biochemical
quantity: IC50 (µM)
The figure you give is taken to be in µM; do not add the unit.

Quick check: IC50 of O=C(O)c1cccc(NS(=O)(=O)c2cccnc2Nc2ccc(Cl)cc2Cl)c1 ?
0.437

Quick check: IC50 of N#Cc1cccc(NS(=O)(=O)c2cccnc2Nc2ccc(Cl)cc2Cl)c1 ?
0.625

Quick check: IC50 of O=S(=O)(Nc1cccc(-c2nnn[nH]2)c1)c1cccnc1Nc1ccc(Cl)cc1Cl ?
0.904

Quick check: IC50 of O=c1[nH]c(-c2cccc(NS(=O)(=O)c3cccnc3Nc3ccc(Cl)cc3Cl)c2)no1 ?
0.665

Quick check: IC50 of COC(=O)c1cccc(NS(=O)(=O)c2cccnc2Nc2ccc(Cl)cc2Cl)c1 ?
0.158

Quick check: IC50 of O=S(=O)(Nc1ccc(F)cc1)c1cccnc1Nc1ccc(Cl)cc1 ?
9.7

Quick check: IC50 of CCOC(=O)c1cccc(NS(=O)(=O)c2cccnc2Nc2ccc(Cl)cc2Cl)c1 ?
0.552

Quick check: IC50 of O=S(=O)(Nc1cccc(O)c1)c1cccnc1Nc1ccc(Cl)cc1Cl ?
0.945

Quick check: IC50 of O=C1COc2ccc(NS(=O)(=O)c3cccnc3Nc3ccc(Cl)cc3Cl)cc2N1 ?
0.249
